Origin of values: PubChem BioAssay (NCI)

System: HL-60(TB) leukemia
test_method_notes: NCI tumour cell line growth inhibition, 48 h
A collection of compounds and their measured log10 of TGI
Each number you see is log10 of TGI, and the unit inside the log is µM.

INSERT INTO results (compound, result_number) VALUES
  ('Cc1ccc([N+](=O)[O-])cc1S(=O)(=O)Nc1ccc(C2=NN(S(=O)(=O)c3cc([N+](=O)[O-])ccc3C)C(c3ccco3)C2)cc1 (stereo unspecified)', 1.99),
  ('COC1=CC(=O)NCCN1', 1.61),
  ('CNc1nc2c(C)ccc3[nH]c(N(C)C)nc3c-2n1', 1.84),
  ('O=C(c1ccccc1)c1nn(-c2ccccc2)c2nc3nc(-c4ccccc4)cc(=O)n3nc12', 1.63),
  ('CC(=O)c1cccc(NC(=O)c2ccc(NC3=C(Cl)C(=O)N(Cc4ccccc4)C3=O)cc2)c1', 1.24);

Could you now consider this next compound?
Consider the compound CCN(Cc1cccc(F)c1F)c1ccc(CO)c(Cl)c1 and give its measured log10 of TGI.
1.61

====

System: LOX IMVI melanoma
test_method_notes: NCI tumour cell line growth inhibition, 48 h
Where a SMILES comes first, the peptide text is derived from it. The star is where a group is joined. Boc = CC(C)(C)OC(=O)*; OBn = c1ccc(CO*)cc1
measurement_label: TGI

Field: example entries. Status: answers known.
INSERT INTO results (compound, experimental_system, result) VALUES
  ('CC(C)CC(NC(=O)C(Cc1ccccc1)NC(=O)C(Cc1ccccc1)NC(=O)OC(C)(C)C)C(=O)OCc1ccccc1 (stereo not drawn) (Boc-Phe-Phe-Leu-OBn; configuration not given here)', 'LOX IMVI melanoma', '> 100 µM'),
  ('N=C(N)SCc1ccc(N=C=S)cc1', 'LOX IMVI melanoma', '28 µM'),
  ('CC(C)[C@](O)(C(=O)OCC1=CCN2CC[C@@H](O)[C@@H]12)[C@H](C)O', 'LOX IMVI melanoma', '> 174 µM'),
  ('O=S(=O)(NCCO)c1cc[c]([Sb](=[O])([OH])[OH])cc1', 'LOX IMVI melanoma', '> 100 µM');

Consider the compound Nc1nc(-c2cc(-c3cccc4ccccc34)nc(N)n2)cc(-c2cccc3ccccc23)n1 and give its measured TGI.
> 100 µM

Consider the compound O=C1C2CC=CCC2C(=O)N1n1c(Cc2ccccc2)n[nH]c1=O (centres undefined) and give its measured TGI.
> 100 µM

Consider the compound Cc1cc(O)cc(C)c1/C=C/c1cncc(C(=O)OC(C)(C)C)c1 and give its measured TGI.
> 25 µM

Consider the compound Clc1cccc2c1OCC1C(c3ccccc3)=NN(c3ccccc3)C21 (centres undefined) and give its measured TGI.
> 100 µM

Consider the compound O=C(CCc1ccc(O)cc1)NCCCNC(=O)CCc1ccc(O)cc1 and give its measured TGI.
> 100 µM

Consider the compound COc1ccc2[nH]c(O)c(/C=c3/ccc4c(c3)N=C(c3ccc(F)cc3)N=4)c2c1 and give its measured TGI.
> 100 µM

====

A collection of compounds and their measured TGI
Test system: DU-145 prostate
test_method_notes: NCI tumour cell line growth inhibition, 48 h

INSERT INTO assay_data (compound, measurement_label, result) VALUES
  ('CC12CCC(O)CC1=CCC1C2CCC2(C)C(c3cccnc3)=CCC12 (stereo not given)', 'TGI', '> 100 µM'),
  ('COC(=O)C1=COc2c(n(C)c3ccccc23)-c2ccccc21', 'TGI', '> 100 µM');

Consider the compound Nc1ncnc2nn(C3OC(CO)C(O)C3O)nc12 (stereo not given) and give its measured TGI.
> 45.4 µM

Consider the compound Cc1[nH]c(=O)nc(N(CCO)/N=C/c2ccc(Cl)cc2)c1C(=O)Nc1ccc(Cl)cc1 and give its measured TGI.
> 100 µM

Consider the compound O=C(CCc1ccc(O)cc1)NCCCNC(=O)CCc1ccc(O)cc1 and give its measured TGI.
> 100 µM

Consider the compound CCOC(=O)c1nc2cc(C(F)(F)F)ccc2[n+]([O-])c1C and give its measured TGI.
> 100 µM

Consider the compound COc1ccc(/C=C2\CN(C)CC3C2=NN(c2ccccc2)C3c2ccc(OC)cc2)cc1 (stereo not given) and give its measured TGI.
> 100 µM

Consider the compound Cc1ccc(C)c(COCCOCn2c(=O)[nH]c(=O)c3cc(Br)ccc32)c1 and give its measured TGI.
> 100 µM

Consider the compound O=C1CCCC[C@H]1C(O)CC1CC(=O)N(c2ccccc2)C(=O)C1 (stereo not given in full) and give its measured TGI.
> 100 µM

Consider the compound Cc1cc2c(cc1C)[n+](Cc1ccc3ccccc3n1)cn2Cc1ccc2ccccc2n1 and give its measured TGI.
6.56 µM
